All values here come from ChEMBL document CHEMBL5726782.

test-system: High affinity nerve growth factor receptor (Homo sapiens)
Sequence (P04629 whole entry, the tested form may be a part): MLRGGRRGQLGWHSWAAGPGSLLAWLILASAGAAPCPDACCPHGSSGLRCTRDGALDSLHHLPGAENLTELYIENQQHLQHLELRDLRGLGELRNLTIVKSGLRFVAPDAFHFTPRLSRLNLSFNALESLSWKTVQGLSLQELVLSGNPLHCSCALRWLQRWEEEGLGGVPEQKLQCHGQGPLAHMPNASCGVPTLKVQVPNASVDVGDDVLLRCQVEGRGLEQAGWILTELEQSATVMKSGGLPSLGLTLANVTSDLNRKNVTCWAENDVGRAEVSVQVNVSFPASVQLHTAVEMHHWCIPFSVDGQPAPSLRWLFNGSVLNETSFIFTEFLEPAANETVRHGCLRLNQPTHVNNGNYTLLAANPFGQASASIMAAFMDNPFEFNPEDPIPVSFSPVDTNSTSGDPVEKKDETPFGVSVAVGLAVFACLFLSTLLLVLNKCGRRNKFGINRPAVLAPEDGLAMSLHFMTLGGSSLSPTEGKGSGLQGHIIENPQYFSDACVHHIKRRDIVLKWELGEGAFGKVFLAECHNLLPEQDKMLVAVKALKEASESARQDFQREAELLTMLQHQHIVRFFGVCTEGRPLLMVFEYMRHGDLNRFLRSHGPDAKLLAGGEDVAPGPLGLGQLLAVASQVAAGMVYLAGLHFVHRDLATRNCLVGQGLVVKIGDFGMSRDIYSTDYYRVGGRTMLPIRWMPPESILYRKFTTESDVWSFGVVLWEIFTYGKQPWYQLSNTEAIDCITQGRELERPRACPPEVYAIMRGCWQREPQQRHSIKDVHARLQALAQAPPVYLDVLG
measurement-notes: Kinase Binding Assay: TrkA binding activity was determined in a TrkA LanthaScreen™ Eu Kinase Binding Assay. 5 nM His-tagged recombinant human TrkA (6HIS tagged cytoplasmic domain from Invitrogen, Catalog No. PV3144) was incubated with 4 nM Alexa-Fluor® Tracer 236 (Invitrogen Cat. No. PV5592), 2 nM biotinylated anti-His (Invitrogen Cat. No. PV6090), and 2 nM europium-labeled Streptavidin (Invitrogen Cat. No. PV5899), in buffer (25 mM MOPS, pH 7.5, 5 mM MgCl2, 0.005% Triton X-100). Three fold serial dilutions of compounds of the invention in DMSO were added to a final percentage of 2% DMSO. After 60-minute incubation at 22° C., the reaction was measured using the EnVision mutlimode plate reader (PerkinElmer) via TR-FRET dual wavelength detection at […]. The percent of control was calculated using a ratiometric emission factor.

line-notation	IC50
COCCN1C[C@@H](NC(=O)Nc2c(C)c(-c3cncc(OC)c3)nn2-c2ccccc2)[C@H](c2ccc(F)c(F)c2)C1	< 100 nM
